target_entity: T1, FJG4P (artificial (motif derived from human …))
T1 chain: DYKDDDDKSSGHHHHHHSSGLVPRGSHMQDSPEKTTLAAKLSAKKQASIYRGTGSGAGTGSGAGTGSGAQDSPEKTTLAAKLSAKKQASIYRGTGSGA
assay_procedure: EMSA; EMSA: DNA annealed in 200 mM Tris pH 7.4, 100 mM KCl, 1 mM EDTA; binding 10 min at 25 C, native PAGE; smTIRFM: 100 pM tethered DNA, 100-5000 pM protein, buffer
test_settings: protein: recombinant; tags: N-terminal FLAG-6xHis; label: 3' 6-FAM; intramolecular parallel G4
experimental_readout: Kd (nM)
State just the number; it will be interpreted in nM.

// query // Kd lookup, key: TGGGTGGGTAGGGTGGGTTT (structured_DNA) [c-MYCG4 (EMSA)]
// result 110
